targetSystem: T1, human TREM2 on cells (human, UniProt Q9NZC2 19-230)
T1 sequence: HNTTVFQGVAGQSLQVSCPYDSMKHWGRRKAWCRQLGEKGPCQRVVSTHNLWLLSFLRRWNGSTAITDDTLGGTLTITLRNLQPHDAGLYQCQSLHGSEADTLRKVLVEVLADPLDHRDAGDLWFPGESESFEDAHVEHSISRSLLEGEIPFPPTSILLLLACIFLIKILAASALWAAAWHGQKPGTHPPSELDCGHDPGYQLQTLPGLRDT
protocol: cell-based or functional assay
Values of pSyk EC50, differentiated THP-1 cells greater than or equal to 0.6 nM map to YES; values below map to NO.

Q. Form field: pSyk EC50, differentiated THP-1 cells at least 0.6 nM? Entry: 6E7 (antibody, human IgG2, V domains shown, human IgG2 from hybridoma) VH: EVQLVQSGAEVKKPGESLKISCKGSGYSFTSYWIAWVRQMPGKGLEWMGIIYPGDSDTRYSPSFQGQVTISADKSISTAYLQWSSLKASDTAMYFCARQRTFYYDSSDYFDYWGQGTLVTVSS VL: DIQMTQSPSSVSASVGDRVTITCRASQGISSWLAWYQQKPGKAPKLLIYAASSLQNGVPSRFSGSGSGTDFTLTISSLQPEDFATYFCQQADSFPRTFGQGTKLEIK
A. YES

Q. Given the entry 4C5 (antibody, V domains shown, human IgG2 from hybridoma) VH: EVQLVQSGAEVKKPGESLKISCKGSGHSFTNYWIAWVRQMPGKGLEWMGIIYPGDSDTRYSPSFQGQVTISADKSISTAYLQWSSLKASDTAVYFCARQRTFYYDSSGYFDYWGQGTLVTVSS VL: DIQMTQSPSSVSASVGDRVTITCRASQGISNWLAWYQQKPGKAPKLLIYAASSLQVGVPLRFSGSGSGTDFTLTISSLQPEDFATYYCQQADSFPRNFGQGTKLEIK , answer whether its pSyk EC50, differentiated THP-1 cells meets or surpasses 0.6 nM.
A. YES

Q. Determine whether this binder has pSyk EC50, differentiated THP-1 cells no lower than 0.6 nM: 4G10 (antibody, human IgG2, V domains shown, human IgG2 from hybridoma) VH: EVQLVQSGAEVKKPGESLKISCKGSGYSFPSYWIAWVRQMPGKGLEWMGIIYPGDSDTRYSPSFQGQVTISADKSISTAFLKWSSLKASDTAMYFCARQGIEVTGTGGLDVWGQGTTVTVSS VL: DIQMTQSPSSLSASVGDRVTITCRASQGIRNDLGWYQQKPGNAPKRLIYAASSLPSGVPSRFSGSGSGPEFTLTISSLQPEDFATYYCLQHNSYPWTFGQGTKVEIT
A. NO

Q. Say whether 13E7 (antibody, human IgG2, V domains shown, human IgG2 from hybridoma) VH: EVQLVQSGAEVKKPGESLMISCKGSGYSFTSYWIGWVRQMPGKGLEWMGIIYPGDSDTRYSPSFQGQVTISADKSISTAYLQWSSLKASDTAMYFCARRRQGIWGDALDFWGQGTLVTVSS VL: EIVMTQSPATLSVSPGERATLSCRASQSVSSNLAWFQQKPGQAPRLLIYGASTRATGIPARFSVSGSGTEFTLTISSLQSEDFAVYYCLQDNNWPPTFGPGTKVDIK shows pSyk EC50, differentiated THP-1 cells of 0.6 nM or more.
A. NO
